system_under_test: αMβ2 integrin (Mac-1) (Homo sapiens, UniProt P11215)
Construct: from tissue; host or cells: blood buffy coats (leukocytes)
assay_name: Phage display biopanning on purified integrin
Format: binding
assay_context: phage bound to αMβ2 integrin, CX7C and CX9C libraries, randomly selected clones
assay_readout: number of isolated nucleotide sequences encoding each peptide

// CWHKDLLGC (Phage sequence bound to the alphaMbeta2 integrin (Mac-1)) : number of isolated nucleotide sequences encoding each peptide value = (4)

// CPPDLFWYC (Phage sequence bound to the alphaMbeta2 integrin (Mac-1)) : number of isolated nucleotide sequences encoding each peptide value = (4)

// CWKLLGSEEEC (Stronly enriched sequence) : number of isolated nucleotide sequences encoding each peptide value = (15)

// CPEDLYFFC (Phage sequence bound to the alphaMbeta2 integrin (Mac-1)) : number of isolated nucleotide sequences encoding each peptide value = (3)
